target: T1, human TrkA receptor on the cell surface (human, UniProt P04629 33-796)
T1 construct: whole, on cells; PC12-hTrkA: high density; also called hTrkA; huTrkA
T1 sequence (P04629 33-796): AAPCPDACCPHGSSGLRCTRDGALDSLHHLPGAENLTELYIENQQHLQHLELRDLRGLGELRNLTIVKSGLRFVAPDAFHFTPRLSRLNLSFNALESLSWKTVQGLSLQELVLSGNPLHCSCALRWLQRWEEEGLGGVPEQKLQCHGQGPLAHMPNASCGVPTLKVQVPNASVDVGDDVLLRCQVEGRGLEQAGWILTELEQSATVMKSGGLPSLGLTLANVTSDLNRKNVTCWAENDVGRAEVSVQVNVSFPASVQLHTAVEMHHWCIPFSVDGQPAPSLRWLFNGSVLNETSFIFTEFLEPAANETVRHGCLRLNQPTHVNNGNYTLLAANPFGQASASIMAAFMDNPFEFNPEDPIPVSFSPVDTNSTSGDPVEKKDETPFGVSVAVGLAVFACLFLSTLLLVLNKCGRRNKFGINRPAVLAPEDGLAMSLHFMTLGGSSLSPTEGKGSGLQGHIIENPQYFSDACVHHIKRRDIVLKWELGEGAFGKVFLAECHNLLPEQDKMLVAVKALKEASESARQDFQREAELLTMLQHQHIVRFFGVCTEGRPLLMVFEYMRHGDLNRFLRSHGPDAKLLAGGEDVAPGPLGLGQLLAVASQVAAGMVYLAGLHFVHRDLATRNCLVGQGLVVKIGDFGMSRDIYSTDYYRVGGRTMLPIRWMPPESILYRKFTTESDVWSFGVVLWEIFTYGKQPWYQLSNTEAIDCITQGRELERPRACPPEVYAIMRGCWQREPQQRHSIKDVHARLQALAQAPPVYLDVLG
assay method text: flow cytometry on TF-1 cells, 4 µg/ml
measurement kind: Fold Increase (fold)

| binder | measurement kind | readout unit | val |
| --- | --- | --- | --- |
| BXhVH2VL1 (antibody, human IgG1, V domains shown, Human IgG1 constant regions (IgG1 expression vectors); COS-7 supernatant; also called hVH2/hVL1) VH: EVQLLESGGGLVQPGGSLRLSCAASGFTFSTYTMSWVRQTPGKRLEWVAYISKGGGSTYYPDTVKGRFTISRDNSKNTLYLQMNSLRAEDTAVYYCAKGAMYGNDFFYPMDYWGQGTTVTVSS VL: EIVLTQSPATLSLSPGERATLSCSASSSVSYMHWYQQKPGQAPRLLIYTTSNLASGIPARFSGSGSGTDFTLTISSLEPEDFAVYYCHQWSSYPWTFGQGTKLEIK | Fold Increase | fold | 2.6 |
| BXhVH2VL4 (antibody, human IgG1, V domains shown, Human IgG1 constant regions (IgG1 expression vectors); COS-7 supernatant; also called hVH2/hVL4) VH: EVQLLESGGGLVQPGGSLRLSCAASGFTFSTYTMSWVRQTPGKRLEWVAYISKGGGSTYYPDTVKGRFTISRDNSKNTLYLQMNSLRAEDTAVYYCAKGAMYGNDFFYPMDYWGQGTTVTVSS VL: QIVLTQSPATLSLSPGERATLSCSASSSVSYMHWYQQKPGQSPRLLIYTTSNLASGIPSRFSGSGSGTDFTLTISSLEPEDAADYYCHQWSSYPWTFGGGTKLEIK | Fold Increase | fold | 1.8 |

Recorded values, source patent US20110145941A1.
